tested on: Nitrobacter spp.; experiment: Nitrite nitrogen in ammonium amended soil incubated at 25° C.; conditions: 0.50 ppm; week 1; soil 25° C.; 200 ppm N
Counter-ions that a name gives are not always drawn.
// NB: equality with 5 ppm counts as condition not met; only Concentration of nitrite nitrogen strictly below is condition met

Take a look at these entries with their results.
Answer whether the compound CC[C@@H](C(=O)[C@@H](C)[C@@H](O)[C@H](C)[C@@H]1O[C@@H]([C@@H](CC)C(=O)O)CC[C@@H]1C)[C@H]1O[C@]2(C=C[C@@H](O)[C@]3(CC[C@@](C)([C@H]4CC[C@](O)(CC)[C@H](C)O4)O3)O2)[C@H](C)C[C@@H]1C [Salinomycin monosodium salt, Salinomycin] has Concentration of nitrite nitrogen strictly less than 5 ppm condition met

Same read-out for Clc1cccc(C(Cl)(Cl)Cl)n1 [Nitrapyrin] ? condition not met

Same read-out for CC[C@@H](C(=O)[C@@H](C)[C@@H](O)[C@H](C)CCc1ccc(C)c(O)c1C(=O)O)[C@H]1O[C@](CC)([C@H]2CC[C@](O)(CC)[C@H](C)O2)C[C@@H]1C [Lasalocid sodium salt, Lasalocid] ? condition met

Okay, now this compound:
Answer whether the compound CO[C@@H]1[C@@H](OC)[C@H](C)[C@@](O)(CC(=O)O)O[C@H]1[C@H](C)[C@H]1O[C@@]2(CC[C@@](C)([C@H]3CC[C@@](C)([C@@H]4O[C@@H]([C@H]5O[C@](C)(O)[C@H](C)C[C@@H]5C)C[C@@H]4O[C@@H]4C[C@H](OC)[C@@H](OC)[C@H](C)O4)O3)O2)C[C@H](O)[C@H]1C [Maduramicin monoammonium salt, Maduramicin] has Concentration of nitrite nitrogen strictly less than 5 ppm condition not met

====

tested on: Nitrosomonas spp.; test: Nitrification of ammonium in soil incubated at 25° C. (ammonium recovery, nitrate accumulation); conditions: 0.25 ppm; week 20; soil 25° C.; 200 ppm N
Structures can show the parent of a compound that is named as a salt.
measured.quantity: Recovery of Ammonium Nitrogen (PPM)
Only the number, expressed in PPM, is required.

These recorded examples may help you get a feel for the data.
# input compound: CC[C@@]1([C@@H]2O[C@@H]([C@H]3O[C@@](O)(CO)[C@H](C)C[C@@H]3C)C[C@@H]2C)CC[C@H]([C@]2(C)CC[C@]3(C[C@H](O)[C@@H](C)[C@@H]([C@@H](C)[C@@H](OC)[C@H](C)C(=O)O)O3)O2)O1 [Monensin sodium salt, Monensin] ; wanted: its Recovery of Ammonium Nitrogen 21

Same read-out for CC[C@@H](C(=O)[C@@H](C)[C@@H](O)[C@H](C)[C@@H]1O[C@@H]([C@@H](CC)C(=O)O)CC[C@@H]1C)[C@H]1O[C@]2(C=C[C@@H](O)[C@]3(CC[C@@](C)([C@H]4CC[C@](O)(CC)[C@H](C)O4)O3)O2)[C@H](C)C[C@@H]1C [Salinomycin monosodium salt, Salinomycin] ? 4

Same read-out for CC[C@@H](C(=O)[C@@H](C)[C@@H](O)[C@H](C)CCc1ccc(C)c(O)c1C(=O)O)[C@H]1O[C@](CC)([C@H]2CC[C@](O)(CC)[C@H](C)O2)C[C@@H]1C [Lasalocid sodium salt, Lasalocid] ? 44

Continue with the compound presented below.
# input compound: CO[C@@H]1[C@@H](OC)[C@H](C)[C@@](O)(CC(=O)O)O[C@H]1[C@H](C)[C@H]1O[C@@]2(CC[C@@](C)([C@H]3CC[C@@](C)([C@@H]4O[C@@H]([C@H]5O[C@](C)(O)[C@H](C)C[C@@H]5C)C[C@@H]4O[C@@H]4C[C@H](OC)[C@@H](OC)[C@H](C)O4)O3)O2)C[C@H](O)[C@H]1C [Maduramicin monoammonium salt, Maduramicin] ; wanted: its Recovery of Ammonium Nitrogen 102

====

test system: Nitrosomonas spp.; test: Nitrification of ammonium in soil incubated at 25° C. (ammonium recovery, nitrate accumulation); conditions: 0.25 ppm; week 16; soil 25° C.; 200 ppm N
Counter-ions that a name gives are not always drawn.
measured.quantity: Recovery of Ammonium Nitrogen (PPM)
Only the number, expressed in PPM, is required.

These recorded examples may help you get a feel for the data.
# input molecule: CC[C@@H](C(=O)[C@@H](C)[C@@H](O)[C@H](C)CCc1ccc(C)c(O)c1C(=O)O)[C@H]1O[C@](CC)([C@H]2CC[C@](O)(CC)[C@H](C)O2)C[C@@H]1C [Lasalocid sodium salt, Lasalocid] ; wanted: its Recovery of Ammonium Nitrogen 78

Same read-out for CO[C@@H]1[C@@H](OC)[C@H](C)[C@@](O)(CC(=O)O)O[C@H]1[C@H](C)[C@H]1O[C@@]2(CC[C@@](C)([C@H]3CC[C@@](C)([C@@H]4O[C@@H]([C@H]5O[C@](C)(O)[C@H](C)C[C@@H]5C)C[C@@H]4O[C@@H]4C[C@H](OC)[C@@H](OC)[C@H](C)O4)O3)O2)C[C@H](O)[C@H]1C [Maduramicin monoammonium salt, Maduramicin] ? 164

Same read-out for CC[C@@H](C(=O)[C@@H](C)[C@@H](O)[C@H](C)[C@@H]1O[C@@H]([C@@H](CC)C(=O)O)CC[C@@H]1C)[C@H]1O[C@]2(C=C[C@@H](O)[C@]3(CC[C@@](C)([C@H]4CC[C@](O)(CC)[C@H](C)O4)O3)O2)[C@H](C)C[C@@H]1C [Salinomycin monosodium salt, Salinomycin] ? 111

Continue with the molecule presented below.
# input molecule: CC[C@@]1([C@@H]2O[C@@H]([C@H]3O[C@@](O)(CO)[C@H](C)C[C@@H]3C)C[C@@H]2C)CC[C@H]([C@]2(C)CC[C@]3(C[C@H](O)[C@@H](C)[C@@H]([C@@H](C)[C@@H](OC)[C@H](C)C(=O)O)O3)O2)O1 [Monensin sodium salt, Monensin] ; wanted: its Recovery of Ammonium Nitrogen 74

====

system: Nitrosomonas spp.; test: Nitrification of ammonium in soil incubated at 25° C. (ammonium recovery, nitrate accumulation); settings: 0.50 ppm; week 4; soil 25° C.; 200 ppm N
Structures can show the parent of a compound that is named as a salt.
measured.quantity: Concentration of nitrate nitrogen (PPM)
Only the number, expressed in PPM, is required.

# input compound: CO[C@@H]1[C@@H](OC)[C@H](C)[C@@](O)(CC(=O)O)O[C@H]1[C@H](C)[C@H]1O[C@@]2(CC[C@@](C)([C@H]3CC[C@@](C)([C@@H]4O[C@@H]([C@H]5O[C@](C)(O)[C@H](C)C[C@@H]5C)C[C@@H]4O[C@@H]4C[C@H](OC)[C@@H](OC)[C@H](C)O4)O3)O2)C[C@H](O)[C@H]1C [Maduramicin monoammonium salt, Maduramicin] ; wanted: its Concentration of nitrate nitrogen 21

Same read-out for CC[C@@H](C(=O)[C@@H](C)[C@@H](O)[C@H](C)CCc1ccc(C)c(O)c1C(=O)O)[C@H]1O[C@](CC)([C@H]2CC[C@](O)(CC)[C@H](C)O2)C[C@@H]1C [Lasalocid sodium salt, Lasalocid] ? 18

Same read-out for CC[C@@]1([C@@H]2O[C@@H]([C@H]3O[C@@](O)(CO)[C@H](C)C[C@@H]3C)C[C@@H]2C)CC[C@H]([C@]2(C)CC[C@]3(C[C@H](O)[C@@H](C)[C@@H]([C@@H](C)[C@@H](OC)[C@H](C)C(=O)O)O3)O2)O1 [Monensin sodium salt, Monensin] ? 22

Same read-out for CC[C@@H](C(=O)[C@@H](C)[C@@H](O)[C@H](C)[C@@H]1O[C@@H]([C@@H](CC)C(=O)O)CC[C@@H]1C)[C@H]1O[C@]2(C=C[C@@H](O)[C@]3(CC[C@@](C)([C@H]4CC[C@](O)(CC)[C@H](C)O4)O3)O2)[C@H](C)C[C@@H]1C [Salinomycin monosodium salt, Salinomycin] ? 18

Next:
# input compound: `Clc1cccc(C(Cl)(Cl)Cl)n1` ; wanted: its Concentration of nitrate nitrogen 21

====

system: Nitrobacter spp.; assay: Nitrite nitrogen in ammonium amended soil incubated at 25° C.; settings: 0.10 ppm; week 16; soil 25° C.; 200 ppm N
Counter-ions that a name gives are not always drawn.
measured.quantity: Concentration of nitrite nitrogen

These recorded examples may help you get a feel for the data.
# input compound: CC[C@@H](C(=O)[C@@H](C)[C@@H](O)[C@H](C)CCc1ccc(C)c(O)c1C(=O)O)[C@H]1O[C@](CC)([C@H]2CC[C@](O)(CC)[C@H](C)O2)C[C@@H]1C [Lasalocid sodium salt, Lasalocid] ; wanted: its Concentration of nitrite nitrogen 6 ppm

Same read-out for CC[C@@]1([C@@H]2O[C@@H]([C@H]3O[C@@](O)(CO)[C@H](C)C[C@@H]3C)C[C@@H]2C)CC[C@H]([C@]2(C)CC[C@]3(C[C@H](O)[C@@H](C)[C@@H]([C@@H](C)[C@@H](OC)[C@H](C)C(=O)O)O3)O2)O1 [Monensin sodium salt, Monensin] ? 7 ppm

Same read-out for CC[C@@H](C(=O)[C@@H](C)[C@@H](O)[C@H](C)[C@@H]1O[C@@H]([C@@H](CC)C(=O)O)CC[C@@H]1C)[C@H]1O[C@]2(C=C[C@@H](O)[C@]3(CC[C@@](C)([C@H]4CC[C@](O)(CC)[C@H](C)O4)O3)O2)[C@H](C)C[C@@H]1C [Salinomycin monosodium salt, Salinomycin] ? 7 ppm

Continue with the compound presented below.
# input compound: CO[C@@H]1[C@@H](OC)[C@H](C)[C@@](O)(CC(=O)O)O[C@H]1[C@H](C)[C@H]1O[C@@]2(CC[C@@](C)([C@H]3CC[C@@](C)([C@@H]4O[C@@H]([C@H]5O[C@](C)(O)[C@H](C)C[C@@H]5C)C[C@@H]4O[C@@H]4C[C@H](OC)[C@@H](OC)[C@H](C)O4)O3)O2)C[C@H](O)[C@H]1C [Maduramicin monoammonium salt, Maduramicin] ; wanted: its Concentration of nitrite nitrogen 14 ppm

Where do these numbers come from? They come from patent US4746349A.
